Reported pEC50 is given for each of the following compounds.
Study System: PB2 (Influenza A virus)
Protocol Notes: biochemical
pEC50: −log10 of the molar value.

Before answering, review these 2 worked examples.
Compound: CCOCCOCCOCCNC(=O)N[C@@H]1CCC[C@H](Nc2nc(-c3c[nH]c4ncc(F)cc34)ncc2F)C1 [Compound A264]
Readout Value: < 4.00
//
Compound: CCOCCOCCCCCN(C(=O)N[C@H]1CCC[C@@H](Nc2nc(-c3c[nH]c4ncc(F)cc34)ncc2Cl)C1)C(C)C
Readout Value: < 4.00

Name the reported pEC50 value associated with the compound CCOCCOCCCC1CCN(C(=O)N[C@@H]2CCC[C@H](Nc3nc(-c4c[nH]c5ncc(F)cc45)ncc3F)C2)C1 (some centres unmarked) 4.60 to 5.30

----------
Study System: PB2 (Influenza A virus, UniProt P03428)
Sequence (P03428 whole entry, looked up): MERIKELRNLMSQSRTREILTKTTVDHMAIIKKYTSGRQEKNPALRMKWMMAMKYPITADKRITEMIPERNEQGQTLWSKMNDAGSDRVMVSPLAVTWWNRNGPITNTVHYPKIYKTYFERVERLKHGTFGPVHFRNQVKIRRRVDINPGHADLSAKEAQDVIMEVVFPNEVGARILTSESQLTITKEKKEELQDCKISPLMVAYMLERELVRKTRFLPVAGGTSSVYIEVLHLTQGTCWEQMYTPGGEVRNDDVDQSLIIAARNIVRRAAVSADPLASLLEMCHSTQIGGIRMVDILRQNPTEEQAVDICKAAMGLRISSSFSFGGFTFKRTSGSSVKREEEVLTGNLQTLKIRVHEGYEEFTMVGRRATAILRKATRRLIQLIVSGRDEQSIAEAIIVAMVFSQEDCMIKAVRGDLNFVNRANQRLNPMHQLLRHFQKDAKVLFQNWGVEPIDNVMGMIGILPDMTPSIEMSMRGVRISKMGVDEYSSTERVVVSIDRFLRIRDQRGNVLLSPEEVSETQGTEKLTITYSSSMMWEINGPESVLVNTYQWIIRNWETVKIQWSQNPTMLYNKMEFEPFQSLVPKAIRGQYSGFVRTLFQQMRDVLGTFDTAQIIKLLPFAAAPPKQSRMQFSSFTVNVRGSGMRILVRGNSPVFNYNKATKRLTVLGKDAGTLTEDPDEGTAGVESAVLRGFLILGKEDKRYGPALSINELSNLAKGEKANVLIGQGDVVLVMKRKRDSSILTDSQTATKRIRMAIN
Protocol Notes: biochemical
Type: binding
Measured Quantity: EC50

Molecule: CCOCCOCCCCCN(C(=O)N[C@H]1CCC[C@@H](Nc2nc(-c3c[nH]c4ncc(F)cc34)ncc2F)C1)C(C)C [Compound A214]
Readout Value: > 100 µM

Molecule: O=C(N[C@@H]1CCC[C@H](Nc2nc(-c3c[nH]c4ncc(F)cc34)ncc2F)C1)c1cc(CCCOCCOCCO)ccn1 [Compound A59]
Readout Value: < 5 µM

Note: attention shifts to another entry.
What EC50 value was documented for this molecule, CCOc1ccccc1OCCCC1CCCN(C(=O)N[C@H]2CCC[C@@H](Nc3nc(-c4c[nH]c5ncc(F)cc45)ncc3F)C2)C1 (stereo partly drawn) [Compound A8] ? > 100 µM

----------
Recorded EC50 by entry
Study System: PB2 (Influenza A virus, UniProt P03428)
Protocol Notes: biochemical

Compound: O=C(NCC(O)CO)OCc1ccnc(C(=O)N[C@H]2CCC[C@@H](Nc3nc(-c4c[nH]c5ncc(F)cc45)ncc3F)C2)c1 (stereo partly shown) [Compound A99]
EC50: < 5 µM

Look up EC50: O=C(O)CNCCNC(=O)OCc1ccnc(C(=O)N[C@@H]2CCC[C@H](Nc3nc(-c4c[nH]c5ncc(F)cc45)ncc3F)C2)c1 [Compound A110] 5 to 25 µM

Given the entry CCOCCCCCOCCNC(=O)N[C@H]1CCC[C@@H](Nc2nc(-c3c[nH]c4ncc(F)cc34)ncc2F)C1 [Compound A192] , report its measured EC50. > 100 µM

State the recorded EC50 for this entry: CCOCCCCCCc1ccnc(C(=O)N[C@H]2CCC[C@@H](Nc3nc(-c4c[nH]c5ncc(F)cc45)ncc3F)C2)c1 [Compound A30] > 100 µM

EC50 for CCOCCOCCCCCN(Cc1ccccn1)C(=O)N[C@@H]1CCC[C@H](Nc2nc(-c3c[nH]c4ncc(F)cc34)ncc2F)C1 [Compound A207] ? 50 to 100 µM

Endpoint output: EC50 of CCOCCCc1cccc(CCN(C)C(=O)N[C@H]2CCC[C@@H](Nc3nc(-c4c[nH]c5ncc(F)cc45)ncc3F)C2)n1 [Compound A213] . Value? > 100 µM

// lookup EC50 for CCCCCOCCOCCN(C)C(=O)N[C@@H]1CCC[C@H](Nc2nc(-c3c[nH]c4ncc(F)cc34)ncc2F)C1 [Compound A177] > 100 µM

What measured EC50 goes with CCOCc1ccc(C(=O)N[C@@H]2CCC[C@H](Nc3nc(-c4c[nH]c5ncc(F)cc45)ncc3F)C2)nc1 [Compound A41] ? 50 to 100 µM

What does the data say about its EC50? Entry: CCNC(=O)CNC(=O)OCc1ccnc(C(=O)N[C@H]2CCC[C@@H](Nc3nc(-c4c[nH]c5ncc(F)cc45)ncc3F)C2)c1 [Compound A111] 5 to 25 µM

Form field: reported EC50 of CN1CCC(CNC(=O)OCc2ccnc(C(=O)N[C@H]3CCC[C@@H](Nc4nc(-c5c[nH]c6ncc(F)cc56)ncc4F)C3)c2)CC1 [Compound A117] 5 to 25 µM

----------
The compounds listed here are annotated with their pIC50.
Study System: PB2 CDlp7007 H3N2 (Influenza A virus, UniProt P31345)
Sequence (P31345 whole entry, looked up): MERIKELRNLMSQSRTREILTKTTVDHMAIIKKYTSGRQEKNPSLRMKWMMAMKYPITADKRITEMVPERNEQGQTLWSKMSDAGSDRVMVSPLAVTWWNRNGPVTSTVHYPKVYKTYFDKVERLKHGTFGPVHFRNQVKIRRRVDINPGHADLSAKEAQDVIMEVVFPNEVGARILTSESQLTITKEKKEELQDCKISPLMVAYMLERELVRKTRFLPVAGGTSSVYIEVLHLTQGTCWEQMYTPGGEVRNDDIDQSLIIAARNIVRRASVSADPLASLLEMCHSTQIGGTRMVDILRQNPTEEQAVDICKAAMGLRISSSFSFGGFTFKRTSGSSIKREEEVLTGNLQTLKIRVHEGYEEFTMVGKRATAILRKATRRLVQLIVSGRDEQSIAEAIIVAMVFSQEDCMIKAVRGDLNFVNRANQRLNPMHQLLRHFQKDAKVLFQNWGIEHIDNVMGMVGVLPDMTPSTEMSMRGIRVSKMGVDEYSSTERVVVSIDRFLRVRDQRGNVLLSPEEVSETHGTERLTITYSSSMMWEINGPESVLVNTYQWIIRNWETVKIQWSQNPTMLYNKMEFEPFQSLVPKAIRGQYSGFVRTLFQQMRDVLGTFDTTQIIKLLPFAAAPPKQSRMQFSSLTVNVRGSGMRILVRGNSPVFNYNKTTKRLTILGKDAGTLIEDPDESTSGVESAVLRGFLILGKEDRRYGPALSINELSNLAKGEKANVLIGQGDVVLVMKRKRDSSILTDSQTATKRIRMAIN
Protocol Notes: biochemical
Type: binding
pIC50: −log10 of the molar value.

Chemical String: CCOCCOCCCCC(=O)N[C@@H]1CCC[C@H](Nc2nc(-c3c[nH]c4ncc(F)cc34)ncc2F)C1
Readout Value: < 4.00
--
Chemical String: CCOCCOCCOCCN(C)C(=O)N[C@@H]1CCC[C@H](Nc2nc(-c3c[nH]c4ncc(F)cc34)ncc2F)C1
Readout Value: 4.00 to 4.30
--
Chemical String: CCNC(=O)OCc1ccnc(C(=O)N[C@@H]2CCC[C@H](Nc3nc(-c4c[nH]c5ncc(F)cc45)ncc3F)C2)c1
Readout Value: 4.60 to 5.30

Now for a further compound.
Please report the recorded pIC50 for CCOCCOCCOCC(=O)N[C@@H]1CCC[C@H](Nc2nc(-c3c[nH]c4ncc(F)cc34)ncc2F)C1 . 4.30 to 4.60

----------
Study System: PB2 (Influenza A virus)
Protocol Notes: biochemical
pEC50: −log10 of the molar value.
Readings of pEC50 for the listed compounds

Below: 5 compounds and their reported pEC50.
Compound: O=C(NCc1ccccn1)OCc1ccnc(C(=O)N[C@H]2CCC[C@@H](Nc3nc(-c4c[nH]c5ncc(F)cc45)ncc3F)C2)c1 [Compound A96]
pEC50: 4.60 to 5.30
--
Compound: CCOCCOCCOCCN(C(=O)N(C)C)[C@@H]1CCC[C@H](Nc2nc(-c3c[nH]c4ncc(F)cc34)ncc2F)C1 [Compound B6]
pEC50: < 4.00
--
Compound: O=C(N[C@@H]1CCC[C@H](Nc2nc(-c3c[nH]c4ncc(F)cc34)ncc2F)C1)c1cc(COCCCCCOCc2ccc(F)cc2)ccn1 [Compound A95]
pEC50: < 4.00
--
Compound: CCOCCOCCCCCN(CC)C(=O)N[C@H]1CCC[C@@H](Nc2nc(-c3c[nH]c4ncc(F)cc34)ncc2F)C1 [Compound A203]
pEC50: < 4.00
--
Compound: CCOCCOCCCc1cncc(C(=O)N[C@H]2CCC[C@@H](Nc3nc(-c4c[nH]c5ncc(F)cc45)ncc3F)C2)c1 [Compound A23]
pEC50: < 4.00

So what does the record say about pEC50 for CCOCCOCc1cccc(CN(C)C(=O)N[C@@H]2CCC[C@H](Nc3nc(-c4c[nH]c5ncc(F)cc45)ncc3F)C2)c1 [Compound A204] ? < 4.00

Need pEC50 of CCOCCOCCCCCN(CC(=O)O)C(=O)N[C@@H]1CCC[C@H](Nc2nc(-c3c[nH]c4ncc(F)cc34)ncc2F)C1 [Compound A202] , thanks. 4.60 to 5.30

Entry under review: O=C(NCc1ccccc1F)OCc1ccnc(C(=O)N[C@H]2CCC[C@@H](Nc3nc(-c4c[nH]c5ncc(F)cc45)ncc3F)C2)c1 [Compound A124] . Reported pEC50? < 4.00

----------
Study System: PB2 (Influenza A virus)
Protocol Notes: biochemical
Item-by-item account of EC50

Known EC50 results, listed for orientation:
Compound: CCOCCOCCCCCN(Cc1ccncc1)C(=O)N[C@H]1CCC[C@@H](Nc2nc(-c3c[nH]c4ncc(F)cc34)ncc2F)C1
EC50: > 100 µM
//
Compound: CCOc1ccccc1OCCCc1ccnc(C(=O)N[C@@H]2CCC[C@H](Nc3nc(-c4c[nH]c5ncc(F)cc45)ncc3F)C2)c1
EC50: > 100 µM
//
Compound: CCOCCOCCCc1ccnc(C(=O)N[C@H]2CCC[C@@H](Nc3nc(-c4c[nH]c5ncc(F)cc45)ncc3F)C2)c1 [Compound A24]
EC50: 50 to 100 µM
//
Compound: O=C(N[C@H]1CCC[C@@H](Nc2nc(-c3c[nH]c4ncc(F)cc34)ncc2F)C1)c1cc(-c2ccccc2)ccn1
EC50: 5 to 25 µM

Look up EC50: CCOCCOCCOCCNC(=O)N(CCOCc1ccccc1)[C@@H]1CCC[C@H](Nc2nc(-c3c[nH]c4ncc(F)cc34)ncc2F)C1 > 100 µM

----------
Study System: PB2 (Influenza A virus, UniProt P03428)
Protocol Notes: biochemical
pEC50: −log10 of the molar value.
pEC50 values for the molecules below.

The following molecules have reported results that may help.
Molecule: CCOCCOCCOCC(=O)N[C@@H]1CCC[C@H](Nc2nc(-c3c[nH]c4ncc(F)cc34)ncc2F)C1 [Compound A263]
Readout Value: 4.30 to 4.60
//
Molecule: O=C(O)COCCOCCOCCC(=O)N[C@H]1CCC[C@@H](Nc2nc(-c3c[nH]c4ncc(F)cc34)ncc2F)C1 [Compound A269]
Readout Value: 4.60 to 5.30

What measured pEC50 is associated with CN(CCOCCOCCOCCO)C(=O)N[C@@H]1CCC[C@H](Nc2nc(-c3c[nH]c4ncc(F)cc34)ncc2F)C1 [Compound A169] on PB2 (Influenza A virus, UniProt P03428)? 4.00 to 4.30

Provide the documented pEC50 with PB2 (Influenza A virus, UniProt P03428) as the system for CCOCCOCCCCCN(C)C(=O)N1CCC(C(=O)Nc2nc(-c3c[nH]c4ncc(F)cc34)ncc2F)C1 (centres unmarked) [Compound C9] < 4.00

// lookup pEC50 | system=PB2 (Influenza A virus, UniProt P03428) | key= CN(CCCCCOCCOCc1ccccc1)C(=O)N[C@H]1CCC[C@@H](Nc2nc(-c3c[nH]c4ncc(F)cc34)ncc2F)C1 [Compound A221] < 4.00

Observed pEC50 on PB2 (Influenza A virus, UniProt P03428) for CCOCCOCCOCCNC(=O)N(CCCCc1ccccc1)[C@H]1CCC[C@@H](Nc2nc(-c3c[nH]c4ncc(F)cc34)ncc2F)C1 [Compound A194] , please. < 4.00

For PB2 (Influenza A virus, UniProt P03428), provide pEC50 of CCCCCCCCCCC(=O)N[C@@H]1CCC[C@H](Nc2nc(-c3c[nH]c4ncc(F)cc34)ncc2F)C1 [Compound A271] please. 4.00 to 4.30

Item: CCOCCOc1cccc(CC(=O)N[C@@H]2CCC[C@H](Nc3nc(-c4c[nH]c5ncc(F)cc45)ncc3F)C2)c1 [Compound A273] Test system: PB2 (Influenza A virus, UniProt P03428) Read-out: pEC50 Value: ? 4.00 to 4.30

Numbers sourced from patent US12357631B2.
